Listing: apparent KD of K4 kissing-loop reporter of selected sequences
# System: K4 kissing-loop RNA reporter;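 also: bound reporter read as fluorescence of individual clusters on recovered sequencing chips by microscopy, with normalized cluster intensities fitted with a binding model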
# MEASUREMENT_PROTOCOL: apparent KD of K4 kissing-loop reporter; higher = weaker reporter binding
# EXPERIMENTAL_CONDITIONS: Eterna round: R107; input ligand: none
Report only the number, with the unit nM understood.

Known apparent KD of K4 kissing-loop reporter results, listed for orientation:
- INPUT_SEQUENCE: "UCGAAGGAUGGAAGGAGCGCUCGUCAGUCCUGCGAGUGAUGUUCGUGGGUAAAUAUUCGCGAGCAGGUAGGUCGCCAUCUUGAGA [Laatla]"
  NUMBER: 112
- INPUT_SEQUENCE: "AGCAUUAUCAGAAGGAGCGUGUAUAAUUCAAGAGAAUUGUUUUCGAGUGAUGUUCGUAAUACACAGGUAGGUCGCUGAUAUAGCA [JR_ExcArginiB_Sub001]"
  NUMBER: 257

## Input Which apparent KD of K4 kissing-loop reporter reading was recorded for the sequence UGUCAUUGGUCGGCCGCCACUAGAAGGUCAAAGACCAUAGAGUGAUGUUCUAAGACGAAAGUCACUAGGACCGGGACCGAUGACU [TrypBS 1 #SwitchBubble #K4Middle] ?
## Output 899

## Input Which apparent KD of K4 kissing-loop reporter reading was recorded for the sequence GUGAGUGACGGAGGAUAUGCGAUAGAUGUAGGAAAAUUAGUGAUGUUAGUUAUGGUAGAGAUAGAAGUAGAAGGUUGGUGUGUGU [RHig 3/7] ?
## Output 561

###

# System: MS2 coat protein
# MEASUREMENT_PROTOCOL: apparent KD of MS2 coat protein; designed switch direction (-1 OFF switch, 1 ON switch): -1; higher = weaker reporter binding
# EXPERIMENTAL_CONDITIONS: input ligand: FMN 200 uM
Classify by measured apparent KD of MS2 coat protein: criterion met if it is equal to or exceeds 100 nM, criterion not met if it is smaller.

- INPUT_SEQUENCE: "CCGGCUGCUGUGAGGAUAUGCCCGCGCGCCCGCGGGCAGAAGGCACAUGAGGAUCACCCAUGUCCUGCGGUCCC [salish99_bmx4_r4_120] (Eterna round: R97, puzzle: Brourd's mod of Exclusion 4)"
  CAT: "criterion met"

## Input Record AGCUGUGGCCGAGGAUAUCCAGCCUUAAAUACCGACGUAUAGUCGGACAUGAGGAUCACCCAUGUGGAGAAGGCGGUCUCAGCA [Eli eng2 - 045] (Eterna round: R96, puzzle: Exclusion NG 2) ; criterion: apparent KD of MS2 coat protein no lower than 100 nM. Met?
## Output criterion met

## Input Record AAGUAGUGUGUGAGGAUAUUGGUGGAAUGACACAUUAAGAAGGCACAUGAGGAUCACCCAUGUGGGUUGACACG [Brourd's EX4 #20] (Eterna round: R97, puzzle: Brourd's mod of Exclusion 4) ; criterion: apparent KD of MS2 coat protein no lower than 100 nM. Met?
## Output criterion met

## Input Record UGCAAGCUUUUAAGAUCCUACAUGAGGAUCACCCAUGUGCUCGUCUUAUAACGUACUGUGACGAAAGUCACGGUACG [JL TOV1 3.95] (Eterna round: R97, puzzle: Sensor, turn-off variant 1) ; criterion: apparent KD of MS2 coat protein no lower than 100 nM. Met?
## Output criterion met

## Input Record CCCGCGCGUGUAGGAUAUGGCUCGGUGUCUGGGCCAGAAGGACAUGAGGAUCACCCAUGUCUGCGGGUGUGGGCGUGGUUUGGG [-36, -33 kcal A 14%] (Eterna round: R96, puzzle: Exclusion NG 1) ; criterion: apparent KD of MS2 coat protein no lower than 100 nM. Met?
## Output criterion not met

## Input Record AAGACAAUUCUCUAGUGCAACAUGAGGAUCACCCAUGUCAUAGAAGCUUUUUGCUCGUGUUAAGUGACUCAAGAGAG [Eternabot (Original) Solution 41] (Eterna round: R97, puzzle: Sensor, turn-off variant 1) ; criterion: apparent KD of MS2 coat protein no lower than 100 nM. Met?
## Output criterion not met
